# Tested on: BICR22 (Oral Cavity Carcinoma)
# METHOD: Bliss excess, mean over the matrix (fraction); higher = more synergy
Examples of molecules with documented Bliss excess follow.

{"MOLECULE": "Cc1cc2ncnn2cc1Nc1ncc2c(n1)n(C1CCOCC1)c(=O)n2C [AZD7648] + CN(C)CCCOc1ccc(-c2ccc3ncc4c(c3c2)n(C2CCOCC2)c(=O)n4C)cn1 [AZD0156] (first compound max 10 µM, 7x7, partner max 1 µM)", "Bliss excess": -0.0192}
{"MOLECULE": "CCc1c2c(nc3ccc(O)cc13)-c1cc3c(c(=O)n1C2)COC(=O)[C@]3(O)CC [SN-38] + CN(C)CCCOc1ccc(-c2ccc3ncc4c(c3c2)n(C2CCOCC2)c(=O)n4C)cn1 [AZD0156] (first compound max 0.3 µM, 7x7, partner max 1 µM)", "Bliss excess": 0.0243}
{"MOLECULE": "COc1cccc(OCCCN)c1-c1cc(Nc2cnc(C#N)cn2)n[nH]1 [Prexasertib] + O=C(c1cc(Cc2n[nH]c(=O)c3ccccc23)ccc1F)N1CCN(C(=O)C2CC2)CC1 [Olaparib] (first compound max 1 µM, 7x7, partner max 10 µM)", "Bliss excess": -0.0685}
{"MOLECULE": "Cc1c2c(nn1C)CSCc1cc(n(C)n1)CSc1cc(c3ccccc3c1)OCCCc1c(C(=O)O)n(C)c3c-2c(Cl)ccc13 [AZD5991] + C1CN(CCC1(C(=O)N[C@@H](CCO)C2=CC=C(C=C2)Cl)N)C3=NC=NC4=C3C=CN4 [Capivasertib] (first compound max 1 µM, 7x7, partner max 3 µM)", "Bliss excess": 0.119}

###

# System: VCaP (Prostate Carcinoma)
# METHOD: Bliss excess, mean over the matrix (fraction); higher = more synergy

{"MOLECULE": "CC1(C)CCC(CN2CCN(c3ccc(C(=O)NS(=O)(=O)c4ccc(NCC5CCOCC5)c([N+](=O)[O-])c4)c(Oc4cnc5[nH]ccc5c4)c3)CC2)=C(c2ccc(Cl)cc2)C1 [Venetoclax] + CS(=O)(=O)CCNCc1ccc(-c2ccc3ncnc(Nc4ccc(OCc5cccc(F)c5)c(Cl)c4)c3c2)o1 [Lapatinib] (first compound max 1 µM, 7x7, partner max 10 µM)", "Bliss excess": -0.0449}
{"MOLECULE": "C[C@@H](Nc1cc(F)cc(F)c1)c1cc(C(=O)N(C)C)cc2c(=O)cc(N3CCOCC3)oc12 [AZD8186] + C1CN(CCC1(C(=O)N[C@@H](CCO)C2=CC=C(C=C2)Cl)N)C3=NC=NC4=C3C=CN4 [AZD5363] (first compound max 10 µM, 7x7, partner max 10 µM)", "Bliss excess": -0.0177}
{"MOLECULE": "CC1(C)CCC(CN2CCN(c3ccc(C(=O)NS(=O)(=O)c4ccc(NCC5CCOCC5)c([N+](=O)[O-])c4)c(Oc4cnc5[nH]ccc5c4)c3)CC2)=C(c2ccc(Cl)cc2)C1 [Venetoclax] + C=CCn1c(=O)c2cnc(Nc3ccc(N4CCN(C)CC4)cc3)nc2n1-c1cccc(C(C)(C)O)n1 [AZD1775] (first compound max 1 µM, partner max 1 µM)", "Bliss excess": -0.0013}

###

# Test system: NCI-H2066 (Squamous Cell Lung Carcinoma)
# METHOD: Bliss excess, mean over the matrix (fraction); higher = more synergy
Examples of compounds with documented Bliss excess follow.
MEASURED_ENDPOINT: Bliss excess

{"COMPOUND": "C=CCn1c(=O)c2cnc(Nc3ccc(N4CCN(C)CC4)cc3)nc2n1-c1cccc(C(C)(C)O)n1 [AZD1775] + CCc1c2c(nc3ccc(O)cc13)-c1cc3c(c(=O)n1C2)COC(=O)[C@]3(O)CC [SN-38] (first compound max 1 µM, partner max 0.3 µM)", "EXPERIMENTAL_RESULT": -0.0821}
{"COMPOUND": "CC1(C)CCC(CN2CCN(c3ccc(C(=O)NS(=O)(=O)c4ccc(NCC5CCOCC5)c([N+](=O)[O-])c4)c(Oc4cnc5[nH]ccc5c4)c3)CC2)=C(c2ccc(Cl)cc2)C1 [Venetoclax] + C[C@@H]1COCCN1C2=NC(=NC(=C2)C3(CC3)[S@](=N)(=O)C)C4=C5C=CNC5=NC=C4 [AZD6738] (first compound max 1 µM, 7x7, partner max 10 µM)", "EXPERIMENTAL_RESULT": -0.0098}
{"COMPOUND": "C[C@@H](Nc1cc(F)cc(F)c1)c1cc(C(=O)N(C)C)cc2c(=O)cc(N3CCOCC3)oc12 [AZD8186] + CC(=O)c1c(C)c2cnc(Nc3ccc(N4CCNCC4)cn3)nc2n(C2CCCC2)c1=O [Palbociclib] (first compound max 10 µM, 7x7, partner max 10 µM)", "EXPERIMENTAL_RESULT": -0.0299}

###

# Test system: NY (Osteosarcoma)
# METHOD: Bliss excess, mean over the matrix (fraction); higher = more synergy

{"COMPOUND": "NC1(C(=O)N[C@@H](CCO)c2ccc(Cl)cc2)CCN(c2ncnc3[nH]ccc23)CC1 [Capivasertib] + CCN(CCO)CCCOc1ccc2c(Nc3cc(CC(=O)Nc4cccc(F)c4)[nH]n3)ncnc2c1 [AZD2811] (first compound max 10 µM, 7x7, partner max 1 µM)", "Bliss excess": -0.0531}
{"COMPOUND": "CC1(C)CCC(CN2CCN(c3ccc(C(=O)NS(=O)(=O)c4ccc(NCC5CCOCC5)c([N+](=O)[O-])c4)c(Oc4cnc5[nH]ccc5c4)c3)CC2)=C(c2ccc(Cl)cc2)C1 [Venetoclax] + CN(C)CCCOc1ccc(-c2ccc3ncc4c(c3c2)n(C2CCOCC2)c(=O)n4C)cn1 [AZD0156] (first compound max 1 µM, 7x7, partner max 1 µM)", "Bliss excess": -0.0939}
{"COMPOUND": "CN(C)CCCOc1ccc(-c2ccc3ncc4c(c3c2)n(C2CCOCC2)c(=O)n4C)cn1 [AZD0156] + C[C@@H]1COCCN1C2=NC(=NC(=C2)C3(CC3)[S@](=N)(=O)C)C4=C5C=CNC5=NC=C4 [AZD6738] (first compound max 1 µM, 7x7, partner max 10 µM)", "Bliss excess": -0.0372}
{"COMPOUND": "C[C@@H](Nc1cc(F)cc(F)c1)c1cc(C(=O)N(C)C)cc2c(=O)cc(N3CCOCC3)oc12 [AZD8186] + CC(=O)c1c(C)c2cnc(Nc3ccc(N4CCNCC4)cn3)nc2n(C2CCCC2)c1=O [Palbociclib] (first compound max 10 µM, 7x7, partner max 10 µM)", "Bliss excess": 0.0895}

###

# Tested on: CAL-29 (Bladder Carcinoma)
# METHOD: combination Emax (second highest fraction inhibited in the dose matrix, 72 h); higher = more inhibition; extreme values may be limits of the assay

{"COMPOUND": "C=CCn1c(=O)c2cnc(Nc3ccc(N4CCN(C)CC4)cc3)nc2n1-c1cccc(C(C)(C)O)n1 [AZD1775] + C[C@@H]1COCCN1C2=NC(=NC(=C2)C3(CC3)[S@](=N)(=O)C)C4=C5C=CNC5=NC=C4 [AZD6738] (first compound max 1 µM, partner max 10 µM)", "combination Emax": 0.794}
{"COMPOUND": "CC1(C)CCC(CN2CCN(c3ccc(C(=O)NS(=O)(=O)c4ccc(NCC5CCOCC5)c([N+](=O)[O-])c4)c(Oc4cnc5[nH]ccc5c4)c3)CC2)=C(c2ccc(Cl)cc2)C1 [Venetoclax] + CCN(CCO)CCCOc1ccc2c(Nc3cc(CC(=O)Nc4cccc(F)c4)[nH]n3)ncnc2c1 [AZD2811] (first compound max 1 µM, 7x7, partner max 1 µM)", "combination Emax": 0.264}
{"COMPOUND": "COc1nnc2ccc(N3CCC(c4ccc(OCCN5CCN(C)C(=O)[C@H]5C)cc4)CC3)nn12 [AZD5153] + CN(CC[C@H](CSC1=CC=CC=C1)NC2=C(C=C(C=C2)S(=O)(=O)NC(=O)C3=CC=C(C=C3)N4CCC(CC4)[C@H](C5=CC=CC=C5C6=CC=C(C=C6)Cl)O)S(=O)(=O)C(F)(F)F)CCO [AZD4320] (first compound max 1 µM, 7x7, partner max 1 µM)", "combination Emax": 0.401}
{"COMPOUND": "NC1(C(=O)N[C@@H](CCO)c2ccc(Cl)cc2)CCN(c2ncnc3[nH]ccc23)CC1 [Capivasertib] + C[C@@H]1COCCN1C2=NC(=NC(=C2)C3(CC3)[S@](=N)(=O)C)C4=C5C=CNC5=NC=C4 [AZD6738] (first compound max 10 µM, 7x7, partner max 10 µM)", "combination Emax": 0.716}

###

Examples of molecules with documented Bliss excess follow.
# System: A3-KAW (B-Cell Non-Hodgkin's Lymphoma)
# METHOD: Bliss excess, mean over the matrix (fraction); higher = more synergy
MEASURED_ENDPOINT: Bliss excess

{"MOLECULE": "Cc1c2c(nn1C)CSCc1cc(n(C)n1)CSc1cc(c3ccccc3c1)OCCCc1c(C(=O)O)n(C)c3c-2c(Cl)ccc13 [AZD5991] + C[C@@H]1COCCN1C2=NC(=NC(=C2)C3(CC3)[S@](=N)(=O)C)C4=C5C=CNC5=NC=C4 [AZD6738] (first compound max 1 µM, 7x7, partner max 10 µM)", "EXPERIMENTAL_RESULT": 0.0161}
{"MOLECULE": "NC1(C(=O)N[C@@H](CCO)c2ccc(Cl)cc2)CCN(c2ncnc3[nH]ccc23)CC1 [Capivasertib] + CC(C)n1c(=O)n(C)c2cnc3cc(F)c(-c4ccc(OCCCN5CCCCC5)nc4)cc3c21 [AZD1390] (first compound max 10 µM, 7x7, partner max 0.3 µM)", "EXPERIMENTAL_RESULT": 0.0088}
{"MOLECULE": "Cc1c2c(nn1C)CSCc1cc(n(C)n1)CSc1cc(c3ccccc3c1)OCCCc1c(C(=O)O)n(C)c3c-2c(Cl)ccc13 [AZD5991] + CCN(CCO)CCCOc1ccc2c(Nc3cc(CC(=O)Nc4cccc(F)c4)[nH]n3)ncnc2c1 [AZD2811] (first compound max 1 µM, 7x7, partner max 1 µM)", "EXPERIMENTAL_RESULT": 0.0434}
